tested on: T1, full-length human APLNR (human, UniProt P35414 1-380)
T1 sequence: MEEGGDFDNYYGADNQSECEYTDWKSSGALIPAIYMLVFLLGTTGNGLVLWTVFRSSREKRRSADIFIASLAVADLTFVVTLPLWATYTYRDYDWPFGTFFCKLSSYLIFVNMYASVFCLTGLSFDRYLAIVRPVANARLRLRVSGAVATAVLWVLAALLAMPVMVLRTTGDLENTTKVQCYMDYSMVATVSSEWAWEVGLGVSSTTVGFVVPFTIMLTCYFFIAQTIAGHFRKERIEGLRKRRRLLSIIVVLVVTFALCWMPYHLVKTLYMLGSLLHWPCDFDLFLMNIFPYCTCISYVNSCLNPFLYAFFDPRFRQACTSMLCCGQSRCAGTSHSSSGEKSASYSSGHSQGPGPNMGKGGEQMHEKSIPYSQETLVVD
assay explanation: cell-based or functional assay
Each item that follows carries a reported % Inhibition at 100 nM antibody, in the presence of 100 ρM Apelin (at 5 µM Forskolin).
readout name: % Inhibition at 100 nM antibody, in the presence of 100 ρM Apelin (at 5 µM Forskolin) (%)

| binder | recorded number |
| --- | --- |
| H2aM9222N (antibody, V domains shown, Human variable domains, mouse IgG2a Fc) VH: EVQLVESGGGLVQPGGSLRLSCAASGFTFSNYWMSWVRQAPGKGLEWVANIKQDGSERYYVGSVKGRFTISRGDAENSLYLQMNSLRAEDTAVYYCARDRFGYSAYDKGVRYYYGMDVWGQGTTVTVSS VL: DIQMTQSPSSLSASVGDRVTITCRASQGIRNDLGWYQQKPGKAPKRLIYAASSLQSGVPSRFSGSGSGTEFTLTISSLQPEDFATYYCLQHNSYPRTFGQGTKVEIK | 11 |
| H2aM9209N (antibody, V domains shown) VH: EVQLLESGGGLVQPGGSLRLSCAASGFTFSNYAMNWVRQAPGRGLEWVSAIHYDGSNSYYADSVKGRFTISRDNSKNTLYLQMNSLRAEDTAIYYCAILSRVYWGQGTLVTVSS VL: DIQMTQSPSSLSASVGDRVTITCRASQGINNYLAWFQQKPGKAPKSLIYATSSLQSGVPSKFSGSGSGTDFTLTISSLQPEDFATYYCQQYNSYPLTFGGGTKVEIK | 7 |
| H2aM9228N (antibody, V domains shown, Human variable domains, mouse IgG2a Fc) VH: EVQLVESGGGLVQPGGSLRLSCAASGFTFSNYWMSWVRLAPGKGLEWVANIKQDGSERYYVGSVKGRFTISRGDAKNSLYLQMNSLRAEDTAVYYCARDRFGYSAFDKGVRYYYGMDVWGQGTTVTVSS VL: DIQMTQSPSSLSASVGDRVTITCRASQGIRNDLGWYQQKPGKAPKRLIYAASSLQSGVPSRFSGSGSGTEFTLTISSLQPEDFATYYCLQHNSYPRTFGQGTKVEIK | 26 |
